Biological target: UniProtKB P17706
Sequence (P17706 1-317 limits assumed): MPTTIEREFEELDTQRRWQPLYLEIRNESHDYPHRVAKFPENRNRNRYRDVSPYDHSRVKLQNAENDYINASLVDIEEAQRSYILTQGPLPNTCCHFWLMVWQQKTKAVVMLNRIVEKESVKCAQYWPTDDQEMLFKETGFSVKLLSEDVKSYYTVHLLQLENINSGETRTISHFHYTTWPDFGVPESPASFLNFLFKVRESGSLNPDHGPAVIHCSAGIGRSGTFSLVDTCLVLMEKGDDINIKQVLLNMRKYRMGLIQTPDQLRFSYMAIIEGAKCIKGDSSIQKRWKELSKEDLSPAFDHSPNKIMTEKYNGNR
OBSERVATION_TYPE: IC50 (nM)

| COMPOUND | MEASURED_TARGET | OBSERVATION_TYPE | NUMBER |
| --- | --- | --- | --- |
| [Na+].[Na+].[Na+].[O]=[V]([O-])([O-])[O-] [Na3VO4] | UniProtKB P17706 | IC50 | 4 |
